Listing of entries alongside the reported pIC50.
Biological target: T1, mouse Ang-2 (mouse, UniProt O35608)
T1 chain: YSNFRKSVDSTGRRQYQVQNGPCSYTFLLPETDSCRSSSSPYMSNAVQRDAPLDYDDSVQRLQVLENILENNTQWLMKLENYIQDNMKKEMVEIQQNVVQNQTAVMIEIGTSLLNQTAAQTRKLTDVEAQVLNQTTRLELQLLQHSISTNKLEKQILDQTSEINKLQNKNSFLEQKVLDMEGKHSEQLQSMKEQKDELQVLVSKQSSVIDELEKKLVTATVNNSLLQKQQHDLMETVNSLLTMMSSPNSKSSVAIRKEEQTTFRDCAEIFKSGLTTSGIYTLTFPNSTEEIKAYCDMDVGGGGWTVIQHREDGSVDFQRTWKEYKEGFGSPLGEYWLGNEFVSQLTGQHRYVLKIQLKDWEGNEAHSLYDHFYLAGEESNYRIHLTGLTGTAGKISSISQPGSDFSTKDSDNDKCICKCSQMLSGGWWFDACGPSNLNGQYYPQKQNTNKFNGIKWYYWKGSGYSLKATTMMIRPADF
Test: competition ELISA vs Tie-2
Primed or numbered codes have the meaning given here. Where no end group is shown, it is not given here. [ ]: non-standard residue; d: D form. Fc(3) = Fc: non-antigen-binding fragment of an antibody from proteolytic digestion of a whole antibody (vehicle); Fc(4) = non-antigen-binding fragment of an antibody (from proteolytic digestion of a whole antibody); Fc = immunoglobulin Fc domain fused to the peptide (peptibody); Fc″ = Fc domain of the peptibody fusion
Kindly note that pIC50 refers to -log10 of the concentration in mol/L and answer with the value alone.

Some binders with known pIC50 results, for comparison:
Would you mind telling me what pIC50 value was observed for M[Fc]GGGGGAQQEECEWDPWTCEHMLE (not fully specified (bridges); printed as M-Fc-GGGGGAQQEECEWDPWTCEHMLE; cysteine pairing not given here; also: Fc fusion domain at position 2) [Con4 (C)] ? 9.54

Would you mind telling me what pIC50 value was observed for MGAQTNFMPMDDLEQRLYEQFILQQGLEGGGGG-Fc [L1-7 (N)] ? 10.20

Others:
Would you mind telling me what pIC50 value was observed for MGAQQKFQPLDELEQTLYEQFMLQQALEGGGGG[Fc(3)] [L1-10 (N)] ? 10.22

Would you mind telling me what pIC50 value was observed for MGAQHTFQPLDELEETLYYQWLYDQLLEGGGGG-{Fc″} [L1-21 (N)] ? 9.60

Would you mind telling me what pIC50 value was observed for M[Fc(4)]GGGGGAQPIRQEECDWDPWTCEHMWEVLE (not fully specified; cysteine pairing not given here) [Con4-44 (C)] ? 9.80

Would you mind telling me what pIC50 value was observed for M[Fc]GGGGGAQTNIQEECEWDPWTCDHMPGKLE (not fully specified; cysteine pairing not given here) [Con4-40 (C)] ? 9.57
